Biological target: T1, rhNR10 (recombinant human NR10) (human, UniProt Q8NI17 20-519, limits assumed)
T1 construct: also called IL-31 receptor; IL31RA
T1 sequence: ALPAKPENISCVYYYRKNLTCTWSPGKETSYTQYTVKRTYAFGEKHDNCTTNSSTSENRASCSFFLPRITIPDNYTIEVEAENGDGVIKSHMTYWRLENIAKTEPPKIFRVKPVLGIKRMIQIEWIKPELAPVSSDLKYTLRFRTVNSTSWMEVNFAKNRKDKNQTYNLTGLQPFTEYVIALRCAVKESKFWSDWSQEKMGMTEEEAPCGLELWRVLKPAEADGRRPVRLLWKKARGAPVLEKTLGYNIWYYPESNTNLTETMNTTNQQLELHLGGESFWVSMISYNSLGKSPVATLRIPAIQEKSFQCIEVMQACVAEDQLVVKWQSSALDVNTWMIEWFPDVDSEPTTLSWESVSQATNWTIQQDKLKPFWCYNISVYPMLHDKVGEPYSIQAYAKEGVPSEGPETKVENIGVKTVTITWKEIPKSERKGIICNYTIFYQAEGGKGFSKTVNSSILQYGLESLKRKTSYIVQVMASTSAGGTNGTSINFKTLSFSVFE
Assay: SPR, Biacore T100; antibody captured on Protein A, rhNR10 as analyte
# reported kon; entries follow
Metric: kon

>>> result("Ha219L0 (Ha219-SKSC / L0) (antibody, V domains shown) VH: QVQLVQSGAEVKKPGASVKVSCKASGYTFTGYIMNWVRQAPGQGLEWMGLINPYNGGTSYNPKFKGRVTITADESTSTAYMELSSLRSEDTAVYYCARDGYDDGPYTMDYWGQGTLVTVSS VL: DIQMTQSPSSLSASVGDRVTITCRTSENIYSFLAWYQQKPGKAPKLLIYNAKTLAKGVPSRFSGSGSGTDFTLTISSLQPEDFATYYCQHHYESPLTFGGGTKVEIKR")
"320000 M⁻¹ s⁻¹"
>>> result("H0La326 (H0-SKSC / La326) (antibody, name in Kabat numbering, V domains shown) VH: QVQLVQSGAEVKKPGASVKVSCKASGYTFTGYIMNWVRQAPGQGLEWMGLINPYNGGTSYNQKFKGRVTITADESTSTAYMELSSLRSEDTAVYYCARDGYDDGPYTMDYWGQGTLVTVSS VL: DIQMTQSPSSLSASVGDRVTITCRTSENIYSFLAWYQQKPGKAPKLLIYNAKTLAKGVPSRFSGSGSGTDFTLTISSLQPEDFATYYCQHHYESPLFFGGGTKVEIKR")
"140000 M⁻¹ s⁻¹"
>>> result("H0La130 (H0-SKSC / La130) (antibody, V domains shown) VH: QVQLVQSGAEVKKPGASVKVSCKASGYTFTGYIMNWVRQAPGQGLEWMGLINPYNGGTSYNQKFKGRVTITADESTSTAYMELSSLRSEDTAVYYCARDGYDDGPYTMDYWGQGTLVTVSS VL: DIQMTQSPSSLSASVGDRVTITCRTSENIYRFVAWYQQKPGKAPKLLIYNAKTLAKGVPSRFSGSGSGTDFTLTISSLQPEDFATYYCQHHYESPLTFGGGTKVEIKR")
"260000 M⁻¹ s⁻¹"
